TARGET UNDER TEST: human recombinant PDE9 protein (Homo sapiens)
Construct: made in house; host or cells: COS-1 cells, transient transfection with pcDNA 3.1 (+); supernatant of the homogenate, not purified
Sequence (O76083 whole entry): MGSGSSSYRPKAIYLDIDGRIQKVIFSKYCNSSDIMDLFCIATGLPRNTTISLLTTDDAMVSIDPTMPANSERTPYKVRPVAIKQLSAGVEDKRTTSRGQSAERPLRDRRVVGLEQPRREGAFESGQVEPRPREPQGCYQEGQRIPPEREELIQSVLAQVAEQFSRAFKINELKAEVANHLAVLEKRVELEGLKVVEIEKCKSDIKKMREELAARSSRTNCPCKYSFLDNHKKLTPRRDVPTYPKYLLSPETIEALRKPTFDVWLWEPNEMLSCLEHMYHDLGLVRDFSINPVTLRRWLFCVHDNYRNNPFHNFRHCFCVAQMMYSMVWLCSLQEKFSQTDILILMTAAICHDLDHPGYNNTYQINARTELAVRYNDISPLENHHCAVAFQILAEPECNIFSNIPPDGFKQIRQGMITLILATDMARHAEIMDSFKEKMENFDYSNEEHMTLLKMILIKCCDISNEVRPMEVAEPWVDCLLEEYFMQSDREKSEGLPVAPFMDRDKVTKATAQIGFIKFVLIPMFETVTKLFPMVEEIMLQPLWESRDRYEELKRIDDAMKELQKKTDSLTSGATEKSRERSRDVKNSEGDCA
METHOD NOTES: Measurement of PDE9-inhibiting activity ([3H]-cGMP hydrolysis)
Format: biochemical
CONDITION: Tables A and C; read-out: Inhibiting Activity (IC50 value) PDE9
Excerpt: Based on the base sequence of hsPDE9A1 registered with GenBank database (accession No.: AF048837), hsPDE9A1 fragment was amplified by polymerase chain reaction under the following conditions, using the following sequence (Amasham Pharmacia Biotech) as the primer and Human Prostate […] cDNA library (CLONTECH) as the template DNA, with Pfu Turbo DNA polymerase ([…]): […] PDE9 inhibition of the tested compound can be calculated by the following formula: […]
MEASUREMENT KIND: IC50 (nM)
Give just the number in nM; leave the unit off.

Recorded result, `Cc1c(C(=O)O)sc2nc(Cc3cccc(Br)c3)[nH]c(=O)c12` , IC50: 24

Notebook: `Cc1c(C(=O)O)sc2nc(Cc3ccsc3)[nH]c(=S)c12` , IC50 read as 9

// `O=C(O)CCc1ncc2c(=O)[nH]c3cc(Br)ccc3n12` : IC50 value = 3

The reported IC50 of the molecule `CC(C)c1ncc2c(=O)[nH]c3cc(C(=O)N(C)C)ccc3n12` was 42
